Origin of measurements: ChEMBL document CHEMBL1201861

Here the recorded pIC50 is given for each entry.
Test system: MFE-296
ASSAY INFO: SANGER: Inhibition of human MFE-296 cell growth in a cell viability assay.
Type: functional, cell-based
EXPERIMENTAL SETUP: Homo sapiens, MFE-296
pIC50: −log10 of the molar value.

Reference set (2 entries):
Can you look up pIC50 on MFE-296 for N#Cc1c(O)c2c(-c3ccc(-c4ccccc4O)cc3)csc2[nH]c1=O ?
< 5.99

Can you look up pIC50 on MFE-296 for Oc1ccc2ccccc2c1SSc1c(O)ccc2ccccc12 ?
< 4.49

More entries:
Can you look up pIC50 on MFE-296 for C=C(c1ccc(C(=O)O)cc1)c1cc2c(cc1C)C(C)(C)CCC2(C)C ?
< 5.10

###

Test system: Daudi;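 also: growth inhibition of Daudi cells, read out by a viability assay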
ASSAY INFO: cells
Type: functional, cell-based, Homo sapiens
EXPERIMENTAL SETUP: Homo sapiens, Daudi
Description: SANGER: Inhibition of human Daudi cell growth in a cell viability assay.
pIC50: −log10 of the molar value.
ASSAY ENDPOINT: pIC50

Reference set (2 entries):
Query: pIC50; subject: COc1cc(N2CCN(C)CC2)ccc1Nc1ncc2c(n1)N(C)c1ccccc1C(=O)N2C
< 5.10

Query: pIC50; subject: Cc1ccc(-c2c(C(=O)CCl)n(CCCO)c3ncnc(N)c23)cc1
< 5.40

Continue with the next compound.
Query: pIC50; subject: CCC/C=C/C=C/C(=O)O[C@H]1/C(=C/C(=O)OC)C[C@H]2C[C@H]([C@@H](C)O)OC(=O)C[C@H](O)C[C@@H]3C[C@H](OC(C)=O)C(C)(C)[C@](O)(C[C@@H]4C/C(=C/C(=O)OC)C[C@H](/C=C/C(C)(C)[C@]1(O)O2)O4)O3 [BRYOSTATIN 1]
< 8.10

###

Test system: SNU1;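 also: growth inhibition of human NCI-SNU-1 cells, measured with a cell viability assay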
ASSAY INFO: cells
Format: functional, cell-based, Homo sapiens
EXPERIMENTAL SETUP: Homo sapiens, SNU1
Description: SANGER: Inhibition of human NCI-SNU-1 cell growth in a cell viability assay.
Counter-ions that a name gives are not always drawn.
Here the recorded pIC50 is given for each entry.
Value format note: pIC50 is -log10 of concentration (mol/L); just state the number.

Reference set (3 entries):
Query: pIC50; subject: COc1cccc2c1C(=O)c1c(O)c3c(c(O)c1C2=O)C[C@@](O)(C(=O)CO)C[C@@H]3O[C@H]1C[C@H](N)[C@H](O)[C@H](C)O1
7.18

Query: pIC50; subject: CO[C@H]1C[C@@H]2CC[C@@H](C)[C@@](O)(O2)C(=O)C(=O)N2CCCC[C@H]2C(=O)O[C@H]([C@H](C)C[C@@H]2CC[C@@H](OC(=O)C(C)(CO)CO)[C@H](OC)C2)CC(=O)[C@H](C)/C=C(\C)[C@@H](O)[C@@H](OC)C(=O)[C@H](C)C[C@H](C)/C=C/C=C/C=C/1C
8.32

Query: pIC50; subject: CN(C)C(=N)NC(=N)N
2.07

Continue with the next molecule.
Query: pIC50; subject: COC1=CC(c2cc3ccccc3[nH]2)=N/C1=C\c1[nH]c(C)cc1C [OBATOCLAX MESYLATE]
6.92

###

Test system: MLMA;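 also: growth inhibition of MLMA cells (human), determined through a cell viability readout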
ASSAY INFO: cells
Type: functional, cell-based, Homo sapiens
EXPERIMENTAL SETUP: Homo sapiens, MLMA
Description: SANGER: Inhibition of human MLMA cell growth in a cell viability assay.
pIC50: −log10 of the molar value.
Here the recorded pIC50 is given for each entry.

Reference set (2 entries):
Query: pIC50; subject: O=C(O)c1ccc(-c2c[nH]c3ncc(-c4ccccc4)cc23)cc1C1CCCC1
< 4.80

Query: pIC50; subject: CC[C@H](CO)Nc1nc(NCc2ccccc2)c2ncn(C(C)C)c2n1
< 4.80

Continue with the next molecule.
Query: pIC50; subject: C#Cc1cccc(Nc2ncnc3cc(OCCOC)c(OCCOC)cc23)c1
< 5.70

###

Here the recorded IC50 is given for each entry.
System: NCI-H2141;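 also: growth inhibition of human NCI-H2141 cells, read out with a cell viability assay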
ASSAY INFO: cells
Format: functional, cell-based, Homo sapiens
EXPERIMENTAL SETUP: Homo sapiens, NCI-H2141
Description: SANGER: Inhibition of human NCI-H2141 cell growth in a cell viability assay.

Reference set (4 entries):
Query: IC50; subject: O=C(O)c1ccc(-c2c[nH]c3ncc(-c4ccccc4)cc23)cc1C1CCCC1
> 16 µM

Query: IC50; subject: CC[C@H](CO)Nc1nc(NCc2ccccc2)c2ncn(C(C)C)c2n1
> 16 µM

Query: IC50; subject: CCC/C=C/C=C/C(=O)O[C@H]1/C(=C/C(=O)OC)C[C@H]2C[C@H]([C@@H](C)O)OC(=O)C[C@H](O)C[C@@H]3C[C@H](OC(C)=O)C(C)(C)[C@](O)(C[C@@H]4C/C(=C/C(=O)OC)C[C@H](/C=C/C(C)(C)[C@]1(O)O2)O4)O3
> 0.008 µM

Query: IC50; subject: COc1cc2ncn(-c3cc(OCc4ccccc4S(C)(=O)=O)c(C#N)s3)c2cc1OC [GSK-319347A]
> 5 µM

Continue with the next molecule.
Query: IC50; subject: CCN(CC)CCNC(=O)c1c(C)[nH]c(/C=C2\C(=O)Nc3ccc(F)cc32)c1C
> 8 µM

###

System: AU565;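 also: cell viability assay measuring growth inhibition of human AU565 cells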
ASSAY INFO: cells
Format: functional, cell-based, Homo sapiens
EXPERIMENTAL SETUP: Homo sapiens, AU565
Description: SANGER: Inhibition of human AU565 cell growth in a cell viability assay.
ASSAY ENDPOINT: IC50

Query: IC50; subject: CS(=O)(=O)c1ccc(C(=O)Nc2ccc(Cl)c(-c3ccccn3)c2)c(Cl)c1
> 10 µM

Query: IC50; subject: N#Cc1c(O)c2c(-c3ccc(-c4ccccc4O)cc3)csc2[nH]c1=O
> 1.02 µM

Continue with the next molecule.
Query: IC50; subject: O=C(O)c1ccc(-c2c[nH]c3ncc(-c4ccccc4)cc23)cc1C1CCCC1
> 16 µM

###

Tested on: T98G;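 also: growth inhibition of T98G cells, read out by a cell viability assay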
ASSAY INFO: cells
Format: functional, cell-based, Homo sapiens
EXPERIMENTAL SETUP: Homo sapiens, T98G
Description: SANGER: Inhibition of human T98G cell growth in a cell viability assay.
pIC50: −log10 of the molar value.
Here the recorded pIC50 is given for each entry.

Reference set (3 entries):
Query: pIC50; subject: CS(=O)(=O)c1ccc(C(=O)Nc2ccc(Cl)c(-c3ccccn3)c2)c(Cl)c1 [VISMODEGIB]
< 5.00

Query: pIC50; subject: Cn1cnc2c(F)c(Nc3ccc(Br)cc3Cl)c(C(=O)NOCCO)cc21 [SELUMETINIB]
< 5.40

Query: pIC50; subject: CCN(CC)CCCCNc1ncc2cc(-c3cc(OC)cc(OC)c3)c(NC(=O)NC(C)(C)C)nc2n1 [PD-173074]
< 5.70

More entries:
Query: pIC50; subject: C=C(c1ccc(C(=O)O)cc1)c1cc2c(cc1C)C(C)(C)CCC2(C)C [BEXAROTENE]
< 5.10

###

Here the recorded IC50 is given for each entry.
Tested on: MV4-11;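 also: cell viability readout measuring growth inhibition of human MV-4-11 cells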
ASSAY INFO: cells
Format: functional, cell-based, Homo sapiens, MV-4-11
EXPERIMENTAL SETUP: Homo sapiens, MV4-11
Description: SANGER: Inhibition of human MV-4-11 cell growth in a cell viability assay.

Reference set (2 entries):
Query: IC50; subject: COc1cc(-c2nn([C@H]3CC[C@H](N4CCN(C(C)=O)CC4)CC3)c3ncnc(N)c23)ccc1NC(=O)c1cc2ccccc2n1C
> 5120 nM

Query: IC50; subject: CCN(CC)CCCCNc1ncc2cc(-c3cc(OC)cc(OC)c3)c(NC(=O)NC(C)(C)C)nc2n1
> 2000 nM

Continue with the next molecule.
Query: IC50; subject: Cc1cn(-c2cc(NC(=O)c3ccc(C)c(Nc4nccc(-c5cccnc5)n4)c3)cc(C(F)(F)F)c2)cn1
> 2000 nM

###

Tested on: MHH-PREB-1;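 also: cell viability assay measuring inhibition of proliferation of human MHH-PREB-1 cells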
ASSAY INFO: cells
Format: functional, cell-based, Homo sapiens
EXPERIMENTAL SETUP: Homo sapiens, MHH-PREB-1
Description: SANGER: Inhibition of human MHH-PREB-1 cell growth in a cell viability assay.
pIC50: −log10 of the molar value.
Here the recorded pIC50 is given for each entry.

Reference set (2 entries):
Query: pIC50; subject: C#Cc1cccc(Nc2ncnc3cc(OCCOC)c(OCCOC)cc23)c1
< 5.70

Query: pIC50; subject: CC[C@H](CO)Nc1nc(NCc2ccccc2)c2ncn(C(C)C)c2n1
< 4.80

Continue with the next compound.
Query: pIC50; subject: O=C(O)c1ccc(-c2c[nH]c3ncc(-c4ccccc4)cc23)cc1C1CCCC1
< 4.80

###

Tested on: KGN
ASSAY INFO: cells
Type: functional, cell-based, Homo sapiens
EXPERIMENTAL SETUP: Homo sapiens, KGN
Description: SANGER: Inhibition of human KGN cell growth in a cell viability assay.
pIC50: −log10 of the molar value.
Here the recorded pIC50 is given for each entry.

Reference set (3 entries):
Query: pIC50; subject: Cc1ccc(-c2c(C(=O)CCl)n(CCCO)c3ncnc(N)c23)cc1
< 5.40

Query: pIC50; subject: CN(C)C(=N)NC(=N)N
< 1.70

Query: pIC50; subject: O=C(O)c1ccc(-c2c[nH]c3ncc(-c4ccccc4)cc23)cc1C1CCCC1
< 4.80

Continue with the next compound.
Query: pIC50; subject: N#Cc1c(O)c2c(-c3ccc(-c4ccccc4O)cc3)csc2[nH]c1=O
< 5.99

###

Tested on: HCC70;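 also: cell viability assay measuring how strongly the compound suppresses proliferation of HCC70 cells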
ASSAY INFO: cells
Type: functional, cell-based, Homo sapiens
EXPERIMENTAL SETUP: Homo sapiens, HCC70
Description: SANGER: Inhibition of human HCC70 cell growth in a cell viability assay.
ASSAY ENDPOINT: IC50

Reference set (4 entries):
Query: IC50; subject: Cc1cn(-c2cc(NC(=O)c3ccc(C)c(Nc4nccc(-c5cccnc5)n4)c3)cc(C(F)(F)F)c2)cn1
> 2 µM

Query: IC50; subject: Nc1ccn([C@@H]2O[C@H](CO)[C@@H](O)C2(F)F)c(=O)n1
> 1.02 µM

Query: IC50; subject: CC(C)c1ccccc1Cc1cc(C(=O)Nc2ccc(S(=O)(=O)c3ccccc3C(C)(C)C)cc2)c(O)c(O)c1O
0.858 µM

Query: IC50; subject: CN(C)C(=N)NC(=N)N
> 20000 µM

Continue with the next compound.
Query: IC50; subject: Cn1cnc2c(F)c(Nc3ccc(Br)cc3Cl)c(C(=O)NOCCO)cc21
> 4 µM
